assay: in vitro; details: human, CC50 (SUDV assay)
Listed next: entries and their corresponding CC50.
Quick note: unit goes after the number.

* Cc1cccc(C)c1OCC(=O)N[C@@H](Cc1ccccc1)[C@@H](O)C[C@H](Cc1ccccc1)NC(=O)[C@H](C(C)C)N1CCCNC1=O | 34.1 µM
* CCCCN(CCCC)CC(O)c1cc(Cl)cc2c1-c1ccc(Cl)cc1/C2=C/c1ccc(Cl)cc1 (stereo not drawn) | 40 µM

Kindly consider the entry below.
CC50 recorded for this compound, O=C1Nc2ccc(Cl)cc2[C@@](C#CC2CC2)(C(F)(F)F)O1 , is 20.7 µM

###

experiment: in vitro; settings: human
REPORTED METRIC: CC50 at 48 h (µM)
Kindly provide the numeric value in µM only, without the unit symbol.

CC50 at 48 h recorded for this molecule, O=C1Nc2ccc(Cl)cc2[C@@](C#CC2CC2)(C(F)(F)F)O1 [Efavirenz] , is 15.1

CC50 at 48 h recorded for this molecule, CCCCN(CCCC)CC(O)c1cc(Cl)cc2c1-c1ccc(Cl)cc1/C2=C/c1ccc(Cl)cc1 (stereo not shown) [Lumefantrine] , is 37.3

Source: paper PMC9950143
